Origin of the recorded values: ChEMBL document CHEMBL4024800

biological target: UniProt:P04800; test: Inhibition of recombinant rat CYP3A1 expressed in baculosomes expression system using fluorogenic-BOMCC as substrate by fluorescent homogeneous assay
Sequence (P04800 whole entry): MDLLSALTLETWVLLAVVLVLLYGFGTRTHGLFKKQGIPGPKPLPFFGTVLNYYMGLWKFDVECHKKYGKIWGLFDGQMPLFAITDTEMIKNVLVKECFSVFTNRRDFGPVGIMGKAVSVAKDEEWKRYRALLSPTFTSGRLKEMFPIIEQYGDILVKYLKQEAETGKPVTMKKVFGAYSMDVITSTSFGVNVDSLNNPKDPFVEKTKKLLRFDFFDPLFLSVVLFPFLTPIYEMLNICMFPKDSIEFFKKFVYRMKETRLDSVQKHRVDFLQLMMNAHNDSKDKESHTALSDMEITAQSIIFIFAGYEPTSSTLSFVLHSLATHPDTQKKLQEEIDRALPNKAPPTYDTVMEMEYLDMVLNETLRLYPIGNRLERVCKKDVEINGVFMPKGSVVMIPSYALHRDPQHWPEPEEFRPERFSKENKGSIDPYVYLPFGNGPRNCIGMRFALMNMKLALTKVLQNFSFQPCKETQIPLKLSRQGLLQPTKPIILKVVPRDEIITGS
ASSAY_ENDPOINT: IC50

Measured IC50 (UniProt:P04800), entry N#Cc1c(-c2cccs2)nc(SCc2cccc(CC(=O)O)c2)[nH]c1=O : > 10 µM

----------
assay: AUClast in mouse kidney at 5 mg/kg, po measured up to 8 hrs post dose; type: ADME, organism-based; set-up: time < 8 hr, dose 5 mg/kg, route oral
ASSAY_ENDPOINT: AUC(0-t) at 8 h (ng·h/mL)
Express your answer in ng·h/mL, writing the number without its unit.

[[record]]
smiles_code = "N#Cc1c(-c2cccs2)nc(SCc2cccc(CC(=O)O)c2)[nH]c1=O"
assay_endpoint = "AUC(0-t) at 8 h"
test_value = 36600


# next compound below
The reported value for N#Cc1c(-c2cccs2)nc(SCc2cccc(-c3nn[nH]n3)c2)[nH]c1=O in terms of AUC(0-t) at 8 h is 2830

----------
Quick list: bioavailability per entry.
test: Oral bioavailability in CD1 mouse at 5 mg/kg measured up to 8 hrs after dose; type: ADME, organism-based; details: in vivo
Express your answer in %, writing the number without its unit.

[[record]]
smiles_code = "N#Cc1c(-c2cccs2)nc(SCc2cccc(-c3nn[nH]n3)c2)[nH]c1=O"
test_value = 2.3


The reported value for N#Cc1c(-c2cccs2)nc(SCc2cccc(CC(=O)O)c2)[nH]c1=O in terms of bioavailability is 12

----------
test: Ratio of AUClast in mouse liver to blood at 5 mg/kg, po measured up to 8 hrs post dose
ASSAY_ENDPOINT: Kp at 8 h
Write the value as a bare number.

The reported value for N#Cc1c(-c2cccs2)nc(SCc2cccc(CC(=O)O)c2)[nH]c1=O in terms of Kp at 8 h is 1.5

----------
test: Volume of distribution at steady state in CD1 mouse at 0.5 mg/kg, iv measured up to 24 hrs post dose; format: ADME, organism-based; conditions: in vivo, read-out: Vdss
ASSAY_ENDPOINT: Vd (L/kg)
Express your answer in L/kg, writing the number without its unit.

The reported value for N#Cc1c(-c2cccs2)nc(SCc2cccc(-c3nn[nH]n3)c2)[nH]c1=O in terms of Vd is 0.306

The reported value for N#Cc1c(-c2cccs2)nc(SCc2cccc(CC(=O)O)c2)[nH]c1=O in terms of Vd is 0.273

----------
biological target: Cytochrome P450 3A4 (Homo sapiens); experiment: Inhibition of recombinant human CYP3A4 expressed in baculosomes expression system using fluorogenic-BOMCC as substrate by fluorescent homogeneous assay; format: ADME
Sequence (P08684 whole entry): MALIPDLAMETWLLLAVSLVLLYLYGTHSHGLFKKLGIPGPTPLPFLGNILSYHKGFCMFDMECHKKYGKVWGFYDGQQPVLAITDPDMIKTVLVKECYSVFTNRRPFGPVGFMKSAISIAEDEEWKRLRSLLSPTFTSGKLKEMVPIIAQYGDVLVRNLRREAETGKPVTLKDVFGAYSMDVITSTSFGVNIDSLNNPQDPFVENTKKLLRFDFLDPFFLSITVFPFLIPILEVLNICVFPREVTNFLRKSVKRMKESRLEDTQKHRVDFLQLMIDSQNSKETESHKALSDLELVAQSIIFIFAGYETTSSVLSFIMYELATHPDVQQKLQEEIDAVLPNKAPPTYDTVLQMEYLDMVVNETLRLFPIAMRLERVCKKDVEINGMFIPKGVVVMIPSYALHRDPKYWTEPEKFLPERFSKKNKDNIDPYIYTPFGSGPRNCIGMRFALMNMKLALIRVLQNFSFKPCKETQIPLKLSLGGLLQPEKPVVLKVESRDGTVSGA
ASSAY_ENDPOINT: IC50

The reported value for N#Cc1c(-c2cccs2)nc(SCc2cccc(CC(=O)O)c2)[nH]c1=O in terms of IC50 is > 10 µM

----------
experiment: Clearance in CD1 mouse at 0.5 mg/kg, iv measured up to 24 hrs post dose; assay type: ADME, organism-based; details: in vivo
ASSAY_ENDPOINT: clearance (mL/min/kg)
Express your answer in mL/min/kg, writing the number without its unit.

[[record]]
smiles_code = "N#Cc1c(-c2cccs2)nc(SCc2cccc(CC(=O)O)c2)[nH]c1=O"
test_value = 0.78


# next compound below
The reported value for N#Cc1c(-c2cccs2)nc(SCc2cccc(-c3nn[nH]n3)c2)[nH]c1=O in terms of clearance is 1.2

----------
assay: Apparent passive permeability from apical to basolateral side in MDCK2-MDR1 cells at 3 uM after 90 mins by LC-MS/MS analysis; assay type: ADME, cell-based, Canis lupus familiaris; details: dog, MDCK-MDR1
ASSAY_ENDPOINT: Papp A→B at 1.5 h, 3 µM
# do not omit the unit; it follows the number

[[record]]
smiles_code = "N#Cc1c(-c2cccs2)nc(SCc2cccc(-c3nn[nH]n3)c2)[nH]c1=O"
test_value = "0.584 ×10⁻⁶ cm/s"


# next molecule below
The reported value for N#Cc1c(-c2cccs2)nc(SCc2cccc(CC(=O)O)c2)[nH]c1=O in terms of Papp A→B at 1.5 h, 3 µM is 0.456 ×10⁻⁶ cm/s

----------
experiment: AUClast in CD1 mouse at 0.5 mg/kg, iv measured up to 24 hrs post dose; type: ADME, organism-based; set-up: dose 0.5 mg/kg, time < 24 hr, route intravenous; conditions: in vivo
ASSAY_ENDPOINT: AUC(0-t) at 24 h (ng·h/mL)
Express your answer in ng·h/mL, writing the number without its unit.

[[record]]
smiles_code = "N#Cc1c(-c2cccs2)nc(SCc2cccc(-c3nn[nH]n3)c2)[nH]c1=O"
assay_endpoint = "AUC(0-t) at 24 h"
test_value = 6900


# next compound below
The reported value for N#Cc1c(-c2cccs2)nc(SCc2cccc(CC(=O)O)c2)[nH]c1=O in terms of AUC(0-t) at 24 h is 10700

----------
assay: AUClast in mouse liver at 5 mg/kg, po measured up to 8 hrs post dose; assay type: ADME, organism-based; set-up: dose 5 mg/kg, time < 8 hr, route oral
ASSAY_ENDPOINT: AUC(0-t) at 8 h (ng·h/mL)
Express your answer in ng·h/mL, writing the number without its unit.

[[record]]
smiles_code = "N#Cc1c(-c2cccs2)nc(SCc2cccc(-c3nn[nH]n3)c2)[nH]c1=O"
assay_endpoint = "AUC(0-t) at 8 h"
test_value = 4290


The reported value for N#Cc1c(-c2cccs2)nc(SCc2cccc(CC(=O)O)c2)[nH]c1=O in terms of AUC(0-t) at 8 h is 19200

----------
assay: Cmax in CD1 mouse at 5 mg/kg, po measured up to 8 hrs after dose; type: ADME, organism-based; parameters: dose 5 mg/kg, route oral; conditions: in vivo
ASSAY_ENDPOINT: Cmax (ng/mL)
Express your answer in ng/mL, writing the number without its unit.

[[record]]
smiles_code = "N#Cc1c(-c2cccs2)nc(SCc2cccc(-c3nn[nH]n3)c2)[nH]c1=O"
value_unit = "ng/mL"
test_value = 255


# next molecule below
The reported value for N#Cc1c(-c2cccs2)nc(SCc2cccc(CC(=O)O)c2)[nH]c1=O in terms of Cmax is 2570

----------
assay: Ratio of AUClast in mouse kidney to blood at 5 mg/kg, po measured up to 8 hrs post dose
ASSAY_ENDPOINT: Kp at 8 h
Write the value as a bare number.

The reported value for N#Cc1c(-c2cccs2)nc(SCc2cccc(CC(=O)O)c2)[nH]c1=O in terms of Kp at 8 h is 2.9

----------
Target or system UniProt:Q8TDX5; recorded quantity IC50.
Sequence (Q8TDX5 whole entry): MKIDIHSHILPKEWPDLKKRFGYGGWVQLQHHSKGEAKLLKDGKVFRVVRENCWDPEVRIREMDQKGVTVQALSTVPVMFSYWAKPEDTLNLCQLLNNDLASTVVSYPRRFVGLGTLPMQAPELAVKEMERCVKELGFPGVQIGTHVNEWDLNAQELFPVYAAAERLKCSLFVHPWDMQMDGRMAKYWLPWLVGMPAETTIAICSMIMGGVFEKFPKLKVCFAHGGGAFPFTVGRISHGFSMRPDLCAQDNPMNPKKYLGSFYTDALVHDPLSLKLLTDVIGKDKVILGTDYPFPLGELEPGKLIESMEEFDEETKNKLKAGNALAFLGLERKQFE
Express your answer in nM, writing the number without its unit.

# count of solved cases: 2
[[record]]
smiles_code = "N#Cc1c(-c2cccs2)nc(SCc2cccc(-c3noc(C(F)(F)F)n3)c2)[nH]c1=O"
assay_endpoint = "IC50"
test_value = 3350

[[record]]
smiles_code = "N#Cc1c(-c2cccs2)nc(SCc2cccc(CC(=O)O)c2)[nH]c1=O"
assay_endpoint = "IC50"
test_value = 13


The reported value for N#Cc1c(-c2cccs2)nc(SCc2cccc(C(=O)NO)c2)[nH]c1=O in terms of IC50 is 1750

The reported value for N#Cc1c(C2CCCCC2)nc(SCc2cccc(C(=O)O)c2)[nH]c1=O in terms of IC50 is 89

----------
target: UniProtKB O88867; test: Inhibition of rat liver KMO using [3,5-3H]-kynurenine substrate
Sequence (O88867 whole entry): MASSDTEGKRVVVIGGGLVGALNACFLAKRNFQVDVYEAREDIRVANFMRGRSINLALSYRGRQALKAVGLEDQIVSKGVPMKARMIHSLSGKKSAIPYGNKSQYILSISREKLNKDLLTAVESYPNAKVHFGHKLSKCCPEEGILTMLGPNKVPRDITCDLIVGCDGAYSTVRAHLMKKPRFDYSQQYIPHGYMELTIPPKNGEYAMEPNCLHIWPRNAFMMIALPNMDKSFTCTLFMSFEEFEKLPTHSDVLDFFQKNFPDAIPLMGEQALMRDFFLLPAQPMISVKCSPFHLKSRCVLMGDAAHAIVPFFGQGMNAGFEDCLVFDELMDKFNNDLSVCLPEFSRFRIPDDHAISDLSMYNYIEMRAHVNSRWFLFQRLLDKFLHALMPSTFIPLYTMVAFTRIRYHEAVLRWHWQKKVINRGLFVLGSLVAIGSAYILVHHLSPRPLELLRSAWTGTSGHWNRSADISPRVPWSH
ASSAY_ENDPOINT: IC50 (nM)
Express your answer in nM, writing the number without its unit.

Measured IC50 (UniProtKB O88867), entry O=C(O)C1CC1C(=O)c1ccc(Cl)c(Cl)c1 (stereo unspecified) : 20

----------
experiment: AUClast in mouse blood at 5 mg/kg, po measured up to 8 hrs post dose; assay type: ADME, organism-based; parameters: time < 8 hr, dose 5 mg/kg, route oral
Quick list: AUC(0-t) at 8 h per entry.
Express your answer in ng·h/mL, writing the number without its unit.

[[record]]
smiles_code = "N#Cc1c(-c2cccs2)nc(SCc2cccc(CC(=O)O)c2)[nH]c1=O"
assay_endpoint = "AUC(0-t) at 8 h"
test_value = 12700


# next molecule below
The reported value for N#Cc1c(-c2cccs2)nc(SCc2cccc(-c3nn[nH]n3)c2)[nH]c1=O in terms of AUC(0-t) at 8 h is 1620
